# Test system: HCT-116 colon
# protocol: NCI tumour cell line growth inhibition, 48 h
Catalogue of TGI values

Below, each entry is followed by its recorded TGI result.
line_notation=Nc1c(C(=O)N/N=C/c2ccc(Cl)cc2)sc(=S)n1-c1ccccc1 system="HCT-116 colon" reported_value="> 100 µM"
line_notation=Cc1[nH]n(C(=N)N)c(=O)c1CCO system="HCT-116 colon" reported_value="> 100 µM"

Let's switch to this molecule now.
So what's the measured TGI for this one? O=C(NNCC(F)(F)F)c1ccncc1
> 100 µM

====

Catalogue of TGI values
# Tested on: 786-0 renal
# protocol: NCI tumour cell line growth inhibition, 48 h
Your answer is read as µM, so omit the unit and give the number.

molecule=COC(=O)/C=C(/C(=O)OC)c1cc2ccc3c([nH]c4ccccc43)c(C)c-2c1 value_units=µM reported_value=20.1

Let's switch to this molecule now.
So what's the measured TGI for this one? CC1(C)CCCC(C)(C2CCC3(C)C2C(O)CC2C4(C)CCC(O)C(C)(C)C4C(O)CC23C)O1 (stereo not given)
72.5

====

Catalogue of TGI values
# System: EKVX NSCLC
# protocol: NCI tumour cell line growth inhibition, 48 h

compound=CC(C)=CCC1=C(OCC(=O)O)C(=O)c2ccccc2C1=O measure_name=TGI reported_value="> 100 µM"
compound=COc1cc(OC)c2c(=O)c(OC)c(-c3ccc4c(c3)OCO4)oc2c1OC measure_name=TGI reported_value="> 100 µM"
compound="Cc1ccc(C2SCC(=O)N2c2ccc(-c3ccc(-n4c(-c5ccccc5)nc5ccccc5c4=O)cc3)cc2)cc1 (stereo unspecified)" measure_name=TGI reported_value="> 100 µM"
compound=O=C1CCCCC=C1C[N+](=O)[O-] measure_name=TGI reported_value="> 100 µM"
compound=NC(=S)N/N=C/c1ccc(N)cn1 measure_name=TGI reported_value="> 10 µM"

Let's switch to this compound now.
So what's the measured TGI for this one? Cn1c(=O)c2ccc(-c3ccc(Br)cc3)nc2n(C)c1=O
> 100 µM

====

# System: CCRF-CEM leukemia
# protocol: NCI tumour cell line growth inhibition, 48 h
Catalogue of TGI values

line_notation=Cc1cccc2nc3cccc(C(=O)NCCNCCNCCNC(=O)c4cccc5nc6cccc(C)c6nc45)c3nc12 reported_value="2.86 µM"
line_notation=C[N+](C)(C)/N=C/c1ccc(O)c(O)c1 reported_value="> 100 µM"

Let's switch to this compound now.
So what's the measured TGI for this one? N#CCOc1ccc(/C=C/C(=O)c2ccc(Cl)cc2)cc1
> 100 µM

====

# Tested on: SW-620 colon
# protocol: NCI tumour cell line growth inhibition, 48 h
measure name: TGI

compound=O=C(OC[C@H]1C[C@H]2C(=O)CCC[C@H]2O1)c1ccccc1 reported_value="> 100 µM"

So what's the measured TGI for this one? Fc1ccc(-c2nn3c(-c4cc(C(F)(F)F)cc(C(F)(F)F)c4)nnc3s2)cc1
> 50 µM

So what's the measured TGI for this one? Cc1ccc2c(c1)C1(OC(=O)c3ccccc31)c1ccc(F)cc1O2 (configuration not stated)
> 100 µM

So what's the measured TGI for this one? Cc1ccc(NCC(=O)N2CC(=O)Nc3ccccc32)cc1
> 100 µM

So what's the measured TGI for this one? NNC1=N/C(=C\c2ccco2)C(=O)N1
> 100 µM

So what's the measured TGI for this one? O=c1cc(N2CCCC2)[nH]c(=O)n1-c1ccc(F)cc1
> 100 µM

So what's the measured TGI for this one? O=C(O)C1CCC(=O)N1S(=O)(=O)c1ccccc1 (configuration not stated)
> 100 µM

So what's the measured TGI for this one? COc1cc(OC)c2c(=O)c(OC)c(-c3ccc4c(c3)OCO4)oc2c1OC
> 100 µM

So what's the measured TGI for this one? CC(C)COC(=O)OC(=O)c1ccc(N(C)Cc2cnc3nc(N)nc(N)c3n2)cc1
> 100 µM

So what's the measured TGI for this one? CCCCCCCCCCCCCCCC(=O)N[C@H](/C=C/[C@H](O)CCCCCCCCCCCCC)CO
> 100 µM

So what's the measured TGI for this one? Cc1ccc(Nc2[nH]c(=O)[nH]c(=O)c2C)cc1Cl
> 100 µM

So what's the measured TGI for this one? O=c1c(C2=NCCC2)c(-c2ccc[nH]2)[nH]n1-c1ccccc1
> 100 µM

So what's the measured TGI for this one? c1cc2nnc1SCCCSc1ccc(nn1)SCCCSc1ccc(nn1)SCCCS2
> 100 µM

So what's the measured TGI for this one? C1COCCOCCOCCOCCOCCO1.[Cl][Sn]([Cl])([c]1ccccc1)[c]1ccccc1
3.28 µM

So what's the measured TGI for this one? CCC/C(Cl)=N\OC(=O)Nc1cccc(C(F)(F)F)c1
8.66 µM

So what's the measured TGI for this one? O=[N+]([O-])c1ccc(Sc2nc(Cl)nc(NC3CCCC3)n2)cc1
> 10 µM

So what's the measured TGI for this one? Cc1cccc2nc3cccc(C(=O)NCCNCCNCCNC(=O)c4cccc5nc6cccc(C)c6nc45)c3nc12
3.5 µM

So what's the measured TGI for this one? COc1ccc(CNC(C)C(=O)O)cc1 (configuration not stated)
> 100 µM

So what's the measured TGI for this one? COC(=O)C1=CC2CC1C(S(=O)(=O)c1ccccc1)C2S(=O)(=O)c1ccccc1 (configuration not stated)
21 µM

====

# Test system: BT-549 breast
# protocol: NCI tumour cell line growth inhibition, 48 h
measure name: TGI

Below, each entry is followed by its recorded TGI result.
molecule="COc1ccc(P2(=S)SP(=S)(c3ccc(Cl)cc3)S2)cc1 (stereo unspecified)" reported_value="> 100 µM"
molecule=COc1cccc2c3ccccc3c3nc[nH]c3c12 reported_value="> 100 µM"

So what's the measured TGI for this one? O=[N+]([O-])c1ccc(Sc2nc(Cl)nc(NC3CCCC3)n2)cc1
> 10 µM

So what's the measured TGI for this one? N#CC1(Nc2ccc(-c3ccc(NC4(C#N)CCCC4)cc3)cc2)CCCC1
> 100 µM

So what's the measured TGI for this one? CCCCCCCCCCCCCCCC(=O)N[C@H](/C=C/[C@H](O)CCCCCCCCCCCCC)CO
> 100 µM

So what's the measured TGI for this one? COc1cc(/C=C/c2nc(N)nnc2C)cc(OC)c1OC
> 64 µM

====

# Tested on: LOX IMVI melanoma
# protocol: NCI tumour cell line growth inhibition, 48 h; in the data active = GI50 below about 0.43 µM; inactive = the rest
Bench note: report the call from active, inactive

line_notation=CCCC[n+]1c(/C=C\c2c(OC)cc(OC)cc2OC)ccc2ccccc21 system="LOX IMVI melanoma" label=inactive
line_notation=O=C1CCCCC=C1C[N+](=O)[O-] system="LOX IMVI melanoma" label=inactive
line_notation=Nc1ccccc1NC(=O)c1ccc(CN2CCC/C(=C\c3ccccn3)C2=O)cc1 system="LOX IMVI melanoma" label=inactive

Give the logged outcome of this assay for the following compound: C/C(=N\NC(=S)N1CCN(C2CCCCCC2)CC1)c1ccccn1
active

Give the logged outcome of this assay for the following compound: CCCCCCCCCCCCCCCC(=O)N[C@H](/C=C/[C@H](O)CCCCCCCCCCCCC)CO
inactive

====

# Tested on: MALME-3M melanoma
# protocol: NCI tumour cell line growth inhibition, 48 h
measure name: TGI

compound=N#CC1(Nc2ccc(-c3ccc(NC4(C#N)CCCC4)cc3)cc2)CCCC1 measure_name=TGI reported_value="> 100 µM"
compound=O=[N+]([O-])c1ccc(Sc2nc(Cl)nc(NC3CCCC3)n2)cc1 measure_name=TGI reported_value="> 10 µM"
compound=CCOC(=O)CSc1nnc(CSc2nc(-c3ccccc3)c(-c3ccccc3)[nH]2)n1-c1ccccc1 measure_name=TGI reported_value="> 100 µM"
compound=COc1cccc(NC(=O)C(C)(C)C)c1SSc1c(NC(=O)C(C)(C)C)cccc1OC measure_name=TGI reported_value="> 63.4 µM"
compound=CCCCCCCCCCCCCCCC(=O)N[C@H](/C=C/[C@H](O)CCCCCCCCCCCCC)CO measure_name=TGI reported_value="> 100 µM"

So what's the measured TGI for this one? CC(=O)Oc1c2c(c(CC=C(C)C)c3c1C(=O)C1=C[C@@H]4CC5C(C)(C)OC(C/C=C(/C)C(=O)O)(C4=O)[C@@]15O3)OC(C)(CCC=C(C)C)C=C2 (some centres not stated)
0.558 µM

So what's the measured TGI for this one? O=C(c1ccco1)c1c(C(F)(F)F)nc2ccc(C(F)(F)F)cc2[n+]1[O-]
47.7 µM

====

# Test system: MDA-MB-435
# protocol: NCI tumour cell line growth inhibition, 48 h
measure name: TGI

Below, each entry is followed by its recorded TGI result.
compound=CC(C)COC(=O)OC(=O)c1ccc(N(C)Cc2cnc3nc(N)nc(N)c3n2)cc1 measure_name=TGI reported_value="> 100 µM"
compound=COc1cc(OC)c2c(=O)c(OC)c(-c3ccc4c(c3)OCO4)oc2c1OC measure_name=TGI reported_value="> 100 µM"
compound=Nn1c(CCCCCCCCc2nnc(COc3ccccc3)n2N)nnc1COc1ccccc1 measure_name=TGI reported_value="> 100 µM"
compound="Cc1ccc(C2SCC(=O)N2c2ccc(-c3ccc(-n4c(-c5ccccc5)nc5ccccc5c4=O)cc3)cc2)cc1 (stereo unspecified)" measure_name=TGI reported_value="> 100 µM"
compound="COc1cccc(C2ON=C(c3ccccc3)N2C23CC4CC(CC(C4)C2)C3)c1 (stereo unspecified)" measure_name=TGI reported_value="> 10 µM"

So what's the measured TGI for this one? OC(c1cc2ccccc2[nH]1)C1(c2cccnc2)SCCCS1 (stereo unspecified)
> 100 µM
